The origin of these recorded values is ChEMBL document CHEMBL4011653.

test_name: Metabolic stability of mouse liver microsomes assessed as amount of parent compound remaining at 25 to 100 uM after 1 hr in the presence of NADPH by LC-MS method
Assay type: ADME, microsome
condition_set: read-out: Stability
assay_readout: remaining at 1 h, up to 100 µM (%)

{"molecule": "CCCCCC(=O)OC([C@H](C[C@@H]1CCNC1=O)NC(=O)[C@H](CC1CCCCC1)NC(=O)OCc1cccc(Cl)c1)S(=O)(=O)O (stereo partly drawn)", "unit_spec": "%", "endpoint_value": 38}
{"molecule": "CC(=O)CC(c1ccccc1)c1c(O)c2ccccc2oc1=O (stereo not drawn) [WARFARIN]", "unit_spec": "%", "endpoint_value": 99.6}
{"molecule": "COc1ccc(CCN(C)CCCC(C#N)(c2ccc(OC)c(OC)c2)C(C)C)cc1OC (stereo not drawn)", "unit_spec": "%", "endpoint_value": 30}

I = CCC(=O)OC([C@H](C[C@@H]1CCNC1=O)NC(=O)[C@H](CC1CCCCC1)NC(=O)OCc1cccc(Cl)c1)S(=O)(=O)[O-].[Na+] (stereo partly drawn)
II = O=C[C@H](C[C@@H]1CCNC1=O)NC(=O)[C@H](CC1CCCCC1)NC(=O)OCc1cccc(Cl)c1
Record comparison, field remaining at 1 h, up to 100 µM: mark the lower of I and II . To answer, give the label that identifies your chosen option.
I

----------
test_name: Metabolic stability of human liver microsomes assessed as amount of parent compound remaining at 25 to 100 uM after 1 hr in the presence of NADPH by LC-MS method
Type: ADME, microsome
condition_set: read-out: Stability
assay_readout: remaining at 1 h, up to 100 µM (%)

Worked cases, remaining at 1 h, up to 100 µM given:
{"compound": "CCCCCC(=O)OC([C@H](C[C@@H]1CCNC1=O)NC(=O)[C@H](CC1CCCCC1)NC(=O)OCc1cccc(Cl)c1)S(=O)(=O)O (stereo partly drawn)", "assay_readout": "remaining at 1 h, up to 100 µM", "unit_spec": "%", "endpoint_value": 76}
{"compound": "O=C[C@H](C[C@@H]1CCNC1=O)NC(=O)[C@H](CC1CCCCC1)NC(=O)OCc1cccc(Cl)c1", "assay_readout": "remaining at 1 h, up to 100 µM", "unit_spec": "%", "endpoint_value": 63}
{"compound": "CC(=O)CC(c1ccccc1)c1c(O)c2ccccc2oc1=O (stereo not drawn) [WARFARIN]", "assay_readout": "remaining at 1 h, up to 100 µM", "unit_spec": "%", "endpoint_value": 95}
{"compound": "COc1ccc(CCN(C)CCCC(C#N)(c2ccc(OC)c(OC)c2)C(C)C)cc1OC (stereo not drawn)", "assay_readout": "remaining at 1 h, up to 100 µM", "unit_spec": "%", "endpoint_value": 41}

I = CCC(=O)OC([C@H](C[C@@H]1CCNC1=O)NC(=O)[C@H](CC1CCCCC1)NC(=O)OCc1cccc(Cl)c1)S(=O)(=O)[O-].[Na+] (stereo partly drawn)
II = O=C(N[C@@H](CC1CCCCC1)C(=O)N[C@@H](C[C@@H]1CCNC1=O)C(O)S(=O)(=O)O)OCc1cccc(Cl)c1 (stereo partly drawn)
III = CC(=O)OC([C@H](C[C@@H]1CCNC1=O)NC(=O)[C@H](CC1CCCCC1)NC(=O)OCc1cccc(Cl)c1)S(=O)(=O)[O-].[Na+] (stereo partly drawn)
IV = CC(C)C[C@H](NC(=O)OCc1ccccc1)C(=O)N[C@@H](C[C@@H]1CCNC1=O)C(O)S(=O)(=O)O (stereo partly drawn)
Ascending by remaining at 1 h, up to 100 µM, please: list the compounds accordingly. Returns: the labels listed in the requested order.
I, III, II, IV
(I: 11%, III: 17%, II: 54%, IV: 92%)

----------
test_name: Protein binding in mouse serum at 25 to 100 uM after 4 hrs by LC-MS method
Assay type: ADME, cell-free
condition_set: read-out: PB (converted)
assay_readout: fraction unbound at 4 h, up to 100 µM

{"molecule": "O=C(N[C@@H](CC1CCCCC1)C(=O)N[C@@H](C[C@@H]1CCNC1=O)C(O)S(=O)(=O)O)OCc1cccc(Cl)c1 (some centres undefined)", "endpoint_value": 0.03}
{"molecule": "CC(=O)CC(c1ccccc1)c1c(O)c2ccccc2oc1=O (centres undefined)", "endpoint_value": 0.04}

P = O=C[C@H](C[C@@H]1CCNC1=O)NC(=O)[C@H](CC1CCCCC1)NC(=O)OCc1cccc(Cl)c1
Q = CC(C)C[C@H](NC(=O)OCc1ccccc1)C(=O)N[C@@H](C[C@@H]1CCNC1=O)C(O)S(=O)(=O)O (some centres undefined)
Record comparison, field fraction unbound at 4 h, up to 100 µM: mark the lower of P and Q . To answer, give the label that identifies your chosen option.
P
(P: 0.02, Q: 0.29)

----------
test_name: Inhibition of Norovirus 3CL protease using Edans-DFHLQ/GP-Dabcyl as substrate after 30 mins by FRET assay
pIC50: −log10 of the molar value.
assay_readout: pIC50

Worked cases, pIC50 given:
{"molecule": "COC(=O)C(C)NC(=O)OC([C@H](C[C@@H]1CCNC1=O)NC(=O)[C@H](CC1CCCCC1)NC(=O)OCc1ccccc1)S(=O)(=O)O (stereo not given in full)", "assay_readout": "pIC50", "endpoint_value": 4.99}
{"molecule": "CC(C)C(=O)OC([C@H](C[C@@H]1CCNC1=O)NC(=O)[C@H](CC1CCCCC1)NC(=O)OCc1cccc(Cl)c1)S(=O)(=O)O (stereo not given in full)", "assay_readout": "pIC50", "endpoint_value": 6.52}
{"molecule": "O=C[C@H](C[C@@H]1CCNC1=O)NC(=O)[C@H](CC1CCCCC1)NC(=O)OCc1cccc(Cl)c1", "assay_readout": "pIC50", "endpoint_value": 7.00}
{"molecule": "CCC(=O)OC([C@H](C[C@@H]1CCNC1=O)NC(=O)[C@H](CC1CCCCC1)NC(=O)OCc1cccc(Cl)c1)S(=O)(=O)[O-].[Na+] (stereo not given in full)", "assay_readout": "pIC50", "endpoint_value": 7.00}
{"molecule": "CCCC(=O)OC([C@H](C[C@@H]1CCNC1=O)NC(=O)[C@H](CC(C)C)NC(=O)OCc1ccccc1)S(=O)(=O)O (stereo not given in full)", "assay_readout": "pIC50", "endpoint_value": 5.43}

A = COC(=O)CNC(=O)OC([C@H](C[C@@H]1CCNC1=O)NC(=O)[C@H](CC(C)C)NC(=O)OCc1ccccc1)S(=O)(=O)O (stereo not given in full)
B = CC(=O)OC([C@H](C[C@@H]1CCNC1=O)NC(=O)[C@H](CC(C)C)NC(=O)OCc1ccccc1)S(=O)(=O)O (stereo not given in full)
C = CCCCCCCC(=O)OC([C@H](C[C@@H]1CCNC1=O)NC(=O)[C@H](CC1CCCCC1)NC(=O)OCc1cccc(Cl)c1)S(=O)(=O)O (stereo not given in full)
D = O=C(N[C@@H](CC1CCCCC1)C(=O)N[C@@H](C[C@@H]1CCNC1=O)C(OC(=O)C1CCCCC1)S(=O)(=O)O)OCc1cccc(Cl)c1 (stereo not given in full)
E = CC(=O)OC([C@H](C[C@@H]1CCNC1=O)NC(=O)[C@H](CC1CCCCC1)NC(=O)OCc1cccc(Cl)c1)S(=O)(=O)[O-].[Na+] (stereo not given in full)
Order these by pIC50, descending, and give the full ranking. Returns: the labels listed in the requested order.
E, D, C, A, B
(E: 7.10, D: 6.40, C: 6.05, A: 5.51, B: 4.98)

A = COC(=O)C(C)NC(=O)OC([C@H](C[C@@H]1CCNC1=O)NC(=O)[C@H](CC1CCCCC1)NC(=O)OCc1cccc(Cl)c1)S(=O)(=O)O (stereo not given in full)
B = CC(C)C[C@H](NC(=O)OCc1ccccc1)C(=O)N[C@@H](C[C@@H]1CCNC1=O)C(OC(=O)c1ccccc1)S(=O)(=O)O (stereo not given in full)
Thinking about recorded pIC50 values, which is higher, A or B ? To answer, give the label that identifies your chosen option.
A
(A: 6.10, B: 5.14)

a = CC(C)C[C@H](NC(=O)OCc1ccccc1)C(=O)N[C@@H](C[C@@H]1CCNC1=O)C(O)S(=O)(=O)O (stereo not given in full)
b = CC(=O)OC([C@H](C[C@@H]1CCNC1=O)NC(=O)[C@H](CC1CCCCC1)NC(=O)OCc1ccccc1)S(=O)(=O)O (stereo not given in full)
c = CCCCCC(=O)OC([C@H](C[C@@H]1CCNC1=O)NC(=O)[C@H](CC(C)C)NC(=O)OCc1ccccc1)S(=O)(=O)O (stereo not given in full)
d = CCCCCC(=O)OC([C@H](C[C@@H]1CCNC1=O)NC(=O)[C@H](CC1CCCCC1)NC(=O)OCc1cccc(Cl)c1)S(=O)(=O)O (stereo not given in full)
Order these by pIC50, descending, and give the full ranking. Returns: the labels listed in the requested order.
d, a, c, b

P = CCCCCCOC(=O)OC([C@H](C[C@@H]1CCNC1=O)NC(=O)[C@H](CC1CCCCC1)NC(=O)OCc1cccc(Cl)c1)S(=O)(=O)O (stereo not given in full)
Q = CCCCC(=O)OC([C@H](C[C@@H]1CCNC1=O)NC(=O)[C@H](CC(C)C)NC(=O)OCc1ccccc1)S(=O)(=O)O (stereo not given in full)
R = CCC(=O)OC([C@H](C[C@@H]1CCNC1=O)NC(=O)[C@H](CC(C)C)NC(=O)OCc1ccccc1)S(=O)(=O)O (stereo not given in full)
S = COC(=O)C(C)NC(=O)OC([C@H](C[C@@H]1CCNC1=O)NC(=O)[C@H](CC(C)C)NC(=O)OCc1ccccc1)S(=O)(=O)O (stereo not given in full)
T = COC(=O)C(NC(=O)OC([C@H](C[C@@H]1CCNC1=O)NC(=O)[C@H](CC1CCCCC1)NC(=O)OCc1cccc(Cl)c1)S(=O)(=O)O)C(C)C (stereo not given in full)
Order these by pIC50, descending, and give the full ranking. Returns: the labels listed in the requested order.
T, P, S, Q, R

a = CCCCCCCC(=O)OC([C@H](C[C@@H]1CCNC1=O)NC(=O)[C@H](CC(C)C)NC(=O)OCc1ccccc1)S(=O)(=O)O (stereo not given in full)
b = O=C(N[C@@H](CC1CCCCC1)C(=O)N[C@@H](C[C@@H]1CCNC1=O)C(O)S(=O)(=O)O)OCc1cccc(Cl)c1 (stereo not given in full)
Thinking about recorded pIC50 values, which is higher, a or b ? To answer, give the label that identifies your chosen option.
b
